Provide the recorded IC50 for the entries that follow.
- measured.target: hRORg (Homo sapiens)
- assay.text: GAL4-RORγ transactivation (luciferase reporter, HG5LN HeLa line)
- test.settings: HG5LN cells, 18 hours incubation, luciferase luminescence

Need IC50, item CCc1ccc(N(CC(C)C)S(=O)(=O)c2ccc3c(c2)[nH]c(=O)n3CC2(F)CCOCC2)cc1 [Compound 5]
< 100 nM

Need IC50, item CCc1ccc(N(CC(C)C)S(=O)(=O)c2ccc3c(c2)[nH]c(=O)n3CC2CCOCC2)cc1 [Compound 2]
< 100 nM

Need IC50, item CCc1ccc(N(CC(C)C)S(=O)(=O)c2ccc3c(c2)n(CC2CCOCC2)c(=O)n3C)cc1 [Compound 1]
> 1000 nM

Need IC50, item CCC(CC)N(c1ccc(C)cc1C)S(=O)(=O)c1ccc2c(c1)[nH]c(=O)n2CC1CCOCC1 [Compound 19]
< 100 nM

----------
Provide the recorded IC50 for the entries that follow.
- measured.target: UniProt P51449
- Sequence (P51449 269-508 limits assumed): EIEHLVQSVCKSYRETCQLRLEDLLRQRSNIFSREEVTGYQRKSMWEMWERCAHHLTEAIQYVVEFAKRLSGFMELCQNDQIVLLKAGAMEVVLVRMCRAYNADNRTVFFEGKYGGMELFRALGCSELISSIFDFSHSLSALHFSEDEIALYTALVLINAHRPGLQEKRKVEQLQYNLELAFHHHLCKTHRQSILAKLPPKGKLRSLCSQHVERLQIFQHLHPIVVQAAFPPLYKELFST
- assay.text: GAL4-RORγ transactivation (luciferase reporter, HG5LN HeLa line)
- test.settings: HG5LN cells, 18 hours incubation, luciferase luminescence

Need IC50, item CCc1ccc(N(CC(C)C)S(=O)(=O)c2ccc3c(c2)[nH]c(=O)n3Cc2ccncc2)cc1
100 to 1000 nM

Need IC50, item CCc1ccc(N(C2CCCC2)S(=O)(=O)c2ccc3c(c2)[nH]c(=O)n3CC2CCOCC2)cc1
< 100 nM

Need IC50, item CCc1ccc(N(CC(C)C)S(=O)(=O)c2ccc3c(c2)[nH]c(=O)n3C2CCN(S(C)(=O)=O)CC2)cc1
> 1000 nM

Need IC50, item CCc1ccc(N(CC(C)C)S(=O)(=O)c2ccc3c(c2)[nH]c(=O)n3C[C@H]2[C@@H]3COC[C@@H]32)cc1
< 100 nM

Need IC50, item CCc1ccc(N(CC(C)C)S(=O)(=O)c2ccc3c(c2)[nH]c(=O)n3CC2(C)CCOCC2)cc1
< 100 nM

Need IC50, item CCc1ccc(N(CC(C)C)S(=O)(=O)c2ccc3c(c2)[nH]c(=O)n3C2CCOCC2)cc1
> 1000 nM

Need IC50, item Cc1ccc(N(C2CCCC2)S(=O)(=O)c2ccc3c(c2)[nH]c(=O)n3CC2CCOCC2)c(C)c1
< 100 nM

----------
- measured.target: hRORg (Homo sapiens)
- assay.text: GAL4-RORγ transactivation (luciferase reporter, HG5LN HeLa line)
- test.settings: HG5LN cells, 18 hours incubation, luciferase luminescence
measured.endpoint: IC50

Need IC50, item CCc1ccc(N(CC(C)C)S(=O)(=O)c2ccc3[nH]c(=O)n(CC4CCOCC4)c3c2)cc1 [Compound 3]
100 to 1000 nM

Need IC50, item CCc1ccc(N(C(CC)CC)S(=O)(=O)c2ccc3c(c2)[nH]c(=O)n3CC2CCOCC2)cc1
< 100 nM

Need IC50, item CCc1ccc(N(CC(C)C)S(=O)(=O)c2ccc3c(c2)[nH]c(=O)n3CC2CNC(=O)O2)cc1 (stereo not drawn)
> 1000 nM

----------
- measured.target: UniProt P51449
- assay.text: GAL4-RORγ transactivation (luciferase reporter, HG5LN HeLa line)
- test.settings: HG5LN cells, 18 hours incubation, luciferase luminescence
- From the text: GAL4-RORγ Transactivation The RORγ transactivation model was developed from the line HG5LN, which is a HeLa line that stably expresses a luciferase reporter gene controlled by a pentamer of the GAL4 recognition domain of yeast and of a β-globin promoter. […] Molecules that inhibit the ROR gamma constitutive activity reduce the luciferase expression, thus leading to a reduction in the emitted luminescence. […]
measured.endpoint: IC50

Need IC50, item Cc1ccc(N(CC(C)C)S(=O)(=O)c2ccc3c(c2)[nH]c(=O)n3CC2CCOCC2)c(C)c1
< 0.1 µM

Need IC50, item CCc1ccc(N(CC(C)C)S(=O)(=O)c2ccc3c(c2)[nH]c(=O)n3C2CCN(C(=O)OC(C)(C)C)CC2)cc1
> 1 µM

Need IC50, item CCc1ccc(N(CC(C)C)S(=O)(=O)c2ccc3[nH]c(=O)n(CC4CCOCC4)c3c2)cc1 [Compound 21]
0.1 to 1 µM

Need IC50, item CCc1ccc(N(CC(C)C)S(=O)(=O)c2ccc3c(c2)[nH]c(=O)n3CC2COC2)cc1
< 0.1 µM

Need IC50, item CCc1ccc(N(CC(C)C)S(=O)(=O)c2ccc3c(c2)[nH]c(=O)n3CC2COC(=O)O2)cc1 (stereo not shown)
< 0.1 µM

Need IC50, item CCc1ccc(N(CC(C)C)S(=O)(=O)c2ccc3c(c2)[nH]c(=O)n3CC2CCS(=O)(=O)CC2)cc1
< 0.1 µM

Need IC50, item CCc1ccc(N(CC(C)C)S(=O)(=O)c2ccc3c(c2)[nH]c(=O)n3C2CCNCC2)cc1
> 1 µM
